testSystem: U2AF65 (Homo sapiens, UniProt P26368 1-475)
Sequence (P26368 whole entry, one chain of several): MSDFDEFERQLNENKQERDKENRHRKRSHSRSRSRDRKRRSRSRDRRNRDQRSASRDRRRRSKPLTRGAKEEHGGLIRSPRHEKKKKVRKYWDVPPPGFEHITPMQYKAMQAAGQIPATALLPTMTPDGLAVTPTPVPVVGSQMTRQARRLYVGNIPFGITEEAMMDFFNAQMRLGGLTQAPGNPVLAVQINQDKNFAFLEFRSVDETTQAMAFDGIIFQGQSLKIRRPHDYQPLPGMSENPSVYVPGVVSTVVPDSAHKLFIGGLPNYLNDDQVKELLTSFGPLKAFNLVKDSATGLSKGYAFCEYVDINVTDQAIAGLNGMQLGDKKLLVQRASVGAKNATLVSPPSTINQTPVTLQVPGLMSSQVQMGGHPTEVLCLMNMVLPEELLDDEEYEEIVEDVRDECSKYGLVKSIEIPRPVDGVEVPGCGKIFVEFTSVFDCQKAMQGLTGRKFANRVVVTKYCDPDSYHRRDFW
protocolSummary: SPR; SPR: 25 °C, 1:10 mixture of binding buffer (10 mM Tris-HCl pH 7.5, 150 mM KCl) and HBS-EP (10 mM HEPES pH 7.4, 150 mM NaCl, 3 mM EDTA, 0.005% P20), protein immobilized; pull-down: RNA on streptavidin beads blocked in 10 mM Tris-HCl pH 7.5, 100 mM KCl, 0.1 mM EDTA, 1 mM DTT, 0.01% Triton X-100, BSA, tRNA; extract 1 h at 30 °C, elution 400-2600 mM KCl
measurementConditions: protein: recombinant; tags: N-terminal His-tag (pET28a); label: biotin; parallel G4 (CD, UV melting)

| binder | unitsSymbol | Kd |
| --- | --- | --- |
| AACGAGGGAGGGAGGGAGAGGGAGAGA (structured_RNA, 3' biotin) [MMP16 GQ] | nM | 5 |
